# Test system: TNF-a (LPS-stimulated human peripheral blood mononuclear cells)
# method: TNF Cell Assay: LPS stimulation of human PBM cells, TNF-a by ELISA
# Format: cell-based
# protocol conditions: PBMC, LPS 20 ng/ml, overnight 37° C., compound 10-0.41 μM
With a cut-off of 1 µM, any IC50 strictly below it is called satisfied; any IC50 meeting it or above is called not satisfied.

>>> category("Cc1cnn(-c2ccc(F)cc2)c1-c1ccncc1")
"satisfied"
>>> category("Cc1cccc(-n2nc(C)cc2-c2ccnc(N)c2)c1")
"satisfied"
>>> category("NC(=O)c1cnn(-c2ccc(F)cc2)c1-c1ccncc1")
"not satisfied"
>>> category("Cc1cccc(-n2ncc(C)c2-c2ccncc2)c1")
"satisfied"
>>> category("Cc1ccc(-n2nc(C)cc2-c2ccnc(NCCO)c2)cc1")
"satisfied"
>>> category("Cc1cccc(-n2nc(C)cc2-c2cc[nH]c(=O)c2)c1")
"not satisfied"
>>> category("Cc1cccc(-n2nc(C)cc2-c2ccnc(N(C)CCc3ccccc3)c2)c1")
"satisfied"
>>> category("Fc1ccc(-n2nccc2-c2ccnc(NCc3ccccc3)c2)cc1")
"not satisfied"
>>> category("Cc1cc(-c2ccnc(NCCO)c2)n(-c2ccc(Cl)cc2)n1")
"satisfied"
>>> category("Cc1cc(-c2ccnc(NCCc3ccccc3)c2)n(-c2ccc(Cl)cc2)n1")
"satisfied"
>>> category("CNc1cc(-c2cc(C)nn2-c2ccc(C)cc2)ccn1")
"satisfied"
>>> category("Fc1ccc(-n2nccc2-c2ccnc(Cl)c2)cc1")
"not satisfied"
>>> category("Cc1cccc(-n2nc(C)cc2-c2ccnc(N(C)C)c2)c1")
"not satisfied"

---

# System: TNF-a (LPS-stimulated human peripheral blood mononuclear cells)
# method: TNF Cell Assay: LPS stimulation of human PBM cells, TNF-a by ELISA
# Format: cell-based
# protocol conditions: PBMC, LPS 20 ng/ml, overnight 37° C., compound 10-0.41 μM
# Description: Method of Isolation of Human Peripheral Blood Mononuclear Cells: Human whole blood was collected in Vacutainer tubes containing EDTA as an anticoagulant. […] PBM cells (0.1 ml, 2 million/ml) were co-incubated with 0.1 ml compound (10-0.41 μM, final concentration) for 1 hour in flat bottom 96 well microtiter plates. […] Viability was analyzed using MTS. […] The cells were incubated at 37° C. for 2-4 hours, then the O.D. was measured at […].
parameter: IC50 (µM)

>>> recorded_measurement("Cc1cc(-c2ccnc(NCc3ccccc3)c2)n(-c2ccc(Cl)cc2)n1")
0.3
>>> recorded_measurement("Cc1cc(-c2ccnc(NCc3cccnc3)c2)n(-c2cccc(F)c2)n1")
0.6
>>> recorded_measurement("Cc1cc(-c2ccnc(N=[N+]=[N-])c2)n(-c2cccc(F)c2)n1")
2.2
>>> recorded_measurement("Fc1ccc(-n2nccc2-c2ccnc(NCCc3ccccc3)c2)cc1")
10

---

parameter: melting point

>>> recorded_measurement("Cc1cc(-c2ccnc(NCc3ccccc3)c2)n(-c2cccc(F)c2)n1")
"94 to 96 °C"
>>> recorded_measurement("Cc1cccc(-n2nc(C)cc2-c2ccnc(C#N)c2)c1")
"128 to 130 °C"
>>> recorded_measurement("Cc1cccc(-n2nc(C)cc2-c2ccnc(NCCc3ccccc3)c2)c1")
"86 to 87 °C"
>>> recorded_measurement("Cc1cc(-c2ccnc(C(N)=O)c2)n(-c2ccc(F)cc2)n1")
"168 to 170 °C"
>>> recorded_measurement("Cc1cnn(-c2cccc(F)c2)c1-c1ccncc1")
"131.11 °C"
>>> recorded_measurement("CNc1cc(-c2cc(C)nn2-c2ccc(C)cc2)ccn1")
"126.34 °C"
